# System: red blood cells
# experimental_details: Hemolysis assay
# Format: cell-based, Sprague-Dawley mouse
Where a SMILES comes first, the peptide text is derived from it. [ ]: non-standard residue; d: D form. Gly(N(CH2)2(3-indolyl)) = O=C(O)CNCCc1c[nH]c2ccccc12; Nspe = C[C@H](NCC(=O)O)c1ccccc1; Nphe = O=C(O)CNCc1ccccc1; Nlys = NCCCCNCC(=O)O
value_type: HC10

Memo: C[C@@H](c1ccccc1)N(CC(=O)N(CCCCN)CC(=O)N(CCc1c[nH]c2ccccc12)CC(=O)N(CCc1c[nH]c2ccccc12)CC(N)=O)C(=O)CN(CCCCN)C(=O)CN(CCCCN)C(=O)CN(Cc1ccccc1)C(=O)CN(Cc1ccccc1)C(=O)CN(CCCCN)C(=O)CN(C(=O)CN(C(=O)CNCCCCN)[C@@H](C)c1ccccc1)[C@@H](C)c1ccccc1 [Peptoid 40] (H-[Nlys][Nspe][Nspe][Nlys][Nphe][Nphe][Nlys][Nlys][Nspe][Nlys][Gly(N(CH2)2(3-indolyl))][Gly(N(CH2)2(3-indolyl))]-NH2) , reported HC10: >100/>100 μM

Source: patent US20240226228A1
